Molecular target: Neutrophil elastase (Homo sapiens, UniProt P08246)
Sequence (P08246 whole entry): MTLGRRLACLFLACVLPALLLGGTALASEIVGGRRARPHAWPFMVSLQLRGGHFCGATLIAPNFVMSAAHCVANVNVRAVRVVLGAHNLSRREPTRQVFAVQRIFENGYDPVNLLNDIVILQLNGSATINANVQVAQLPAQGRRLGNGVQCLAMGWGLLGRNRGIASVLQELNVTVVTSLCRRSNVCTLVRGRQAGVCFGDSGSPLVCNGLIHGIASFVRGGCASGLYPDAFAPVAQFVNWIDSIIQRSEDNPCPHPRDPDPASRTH
Assay: Evaluated for inhibition of the human sputum elastase (HSE)
pKi: −log10 of the molar value.
measurement name: pKi

INSERT INTO results (structure_smiles_string, measurement_name, reported) VALUES
  ('CCCCCCCCCc1cc(O)cc(=O)o1', 'pKi', 3.40);

[A] CCCCCCCC(=O)c1c(O)cc(CCCCCCC)oc1=O
[B] CCCCOC(=O)C(=O)/C=C1\C=C(OC)C=C(O)O1
[C] CCOC(=O)C(=O)/C=C1\C=C(OC)C=C(O)O1
[D] CCCCCCCCC(=O)c1c(O)cc(CCCCCCCC)oc1=O
Sort ascending by pKi. Give your ranking as a list of the labels in the requested order.
B, C, A, D

* * *

Test system: alpha-chymotrypsin
Assay: Solubility against bovine alpha-chymotrypsin
Type: ADME, Bos taurus
Settings: cattle
measurement name: inhibitor concentration tested (near solubility limit) (µM)

These recorded examples may help you get a feel for the data.
INSERT INTO measurements (structure_smiles_string, test_system, display_unit, reported) VALUES
  ('CCCCCc1cc(O)cc(=O)o1', 'alpha-chymotrypsin', 'µM', 200),
  ('CCCCCCCCCC(=O)c1c(O)cc(CCCCCCCCC)oc1=O', 'alpha-chymotrypsin', 'µM', 25),
  ('CCCCCOC(=O)C(=O)/C=C1\C=C(OC)C=C(O)O1', 'alpha-chymotrypsin', 'µM', 200),
  ('CCCCCC(=O)c1c(O)cc(CCCCC)oc1=O', 'alpha-chymotrypsin', 'µM', 25),
  ('CCCCCCCCCc1cc(O)cc(=O)o1', 'alpha-chymotrypsin', 'µM', 200);

[P] CCCCOC(=O)C(=O)/C=C1\C=C(OC)C=C(O)O1
[Q] CCCCCCCC(=O)c1c(O)cc(CCCCCCC)oc1=O
[R] COC1=C/C(=C\C(=O)C(=O)O)OC(O)=C1
Could you please sort these 3 entries by inhibitor concentration tested (near solubility limit) from high to low? Give your ranking as a list of the labels in the requested order.
R, P, Q
(R: 1000 µM, P: 200 µM, Q: 25 µM)
